molecular target: T1, human serum proteins (binding ascribed fully to human serum albumin, HSA) (human, UniProt P02768 25-609); assay: apparent Kd* by EC50 shift analysis: Jurkat viability EC50 at 0, 2 and 10% human serum, fit assuming 1:1 binding to HSA
T1 construct: No purified HSA was used
T1 sequence (P02768 25-609 limits assumed): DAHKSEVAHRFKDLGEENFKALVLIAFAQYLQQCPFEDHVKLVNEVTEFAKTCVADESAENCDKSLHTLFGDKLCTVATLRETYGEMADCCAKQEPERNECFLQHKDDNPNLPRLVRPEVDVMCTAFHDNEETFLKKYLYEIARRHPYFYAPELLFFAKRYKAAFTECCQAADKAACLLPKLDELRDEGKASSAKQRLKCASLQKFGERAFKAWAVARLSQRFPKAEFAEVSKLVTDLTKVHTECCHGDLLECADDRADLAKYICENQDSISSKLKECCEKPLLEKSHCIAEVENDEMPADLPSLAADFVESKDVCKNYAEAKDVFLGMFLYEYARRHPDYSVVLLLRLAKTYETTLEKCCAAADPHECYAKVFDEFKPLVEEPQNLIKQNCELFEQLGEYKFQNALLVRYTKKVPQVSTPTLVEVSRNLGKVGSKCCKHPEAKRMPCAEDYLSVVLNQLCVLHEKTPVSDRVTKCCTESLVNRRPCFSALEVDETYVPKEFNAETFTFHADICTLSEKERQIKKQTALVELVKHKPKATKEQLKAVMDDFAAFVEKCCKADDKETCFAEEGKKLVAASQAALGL
Bridge positions count the residues as written; N and C are the ends. Square brackets hold non-standard residues; d marks the D form. * marks the point of attachment. S5 = C=CCCC[C@](C)(N)C(=O)O; Nle = CCCC[C@H](N)C(=O)O; Aib = CC(C)(N)C(=O)O; Propionyl = CCC(=O)*
measured.quantity: Kd (nM)
Enter your answer as a number in nM; do not include the unit.

binder	Kd [nM]
Propionyl-RNIARHL[Aib][S5]V[Aib]D[S5][Nle]DRSI-NH2 (staple 9-13) [Compound 6 (crosslinked polypeptide derived from human BID BH3)]	400

Lookup: Given Ac-ALRRRI[S5]LCA[S5]HHST-NH2 (staple 7-11, also called hMAML) [Compound 19 (crosslinked polypeptide derived from human MAML peptide sequence)] , respond with its Kd.
Found: 600
